This collection of values is drawn from ChEMBL document CHEMBL2434856.

Test system: L6
Test: Cytotoxicity against rat L6 cells
Format: cell-based
pIC50: −log10 of the molar value.
Quantity measured: pIC50

{"Chemical string": "O=C(CCc1ccccc1)NCCCNCCCCNCCCNC(=O)CCc1ccccc1", "Target or test system": "L6", "Recorded measurement": 4.04}
{"Chemical string": "CC(C)(C)OC(=O)N(CCCCCCCCCCCCN(CCCNC(=O)CCc1ccccc1O)C(=O)OC(C)(C)C)CCCNC(=O)CCc1ccccc1O", "Target or test system": "L6", "Recorded measurement": 5.44}
{"Chemical string": "O=C(CCc1ccccc1O)NCCCNCCCCNCCCNC(=O)CCc1ccccc1O", "Target or test system": "L6", "Recorded measurement": 4.07}
{"Chemical string": "CC(C)(C)OC(=O)N(CCCCCCCCN(CCCNC(=O)Cc1ccccc1)C(=O)OC(C)(C)C)CCCNC(=O)Cc1ccccc1", "Target or test system": "L6", "Recorded measurement": 5.07}

====

Assay: Selectivity index, ratio of IC50 for rat L6 cells to IC50 for erythrocytic stage of chloroquine and pyrimethamine-resistant Plasmodium falciparum K1
Assay type: toxicity, cell-based
Details: read-out: Ratio IC50
Each entry below carries its recorded selectivity ratio.

{"Chemical string": "COc1ccc(OC)c(C(=O)NCCCNCCCCCCCCCCCCNCCCNC(=O)c2cc(OC)ccc2OC)c1", "selectivity ratio": 5.6}
{"Chemical string": "CC(C)(C)OC(=O)N(CCCCCCCCCCCCN(CCCNC(=O)c1ccccc1)C(=O)OC(C)(C)C)CCCNC(=O)c1ccccc1", "selectivity ratio": 52}
{"Chemical string": "O=C(Cc1ccccc1)NCCCNCCCCCCCCCCCCNCCCNC(=O)Cc1ccccc1", "selectivity ratio": 138}
{"Chemical string": "COc1ccc(CC(=O)NCCCN(CCCCCCCCCCCCN(CCCNC(=O)Cc2ccc(OC)cc2)C(=O)OC(C)(C)C)C(=O)OC(C)(C)C)cc1", "selectivity ratio": 22}
{"Chemical string": "O=C(Cc1ccccc1O)NCCCNCCCCCCCCNCCCNC(=O)Cc1ccccc1O", "selectivity ratio": 42300}
{"Chemical string": "COc1ccc(OC)c(C(=O)NCCCNCCCCNCCCNC(=O)c2cc(OC)ccc2OC)c1", "selectivity ratio": 81}
{"Chemical string": "CC(C)(C)OC(=O)N(CCCCCCCCCCCCN(CCCNC(=O)CCc1ccccc1O)C(=O)OC(C)(C)C)CCCNC(=O)CCc1ccccc1O", "selectivity ratio": 28}
{"Chemical string": "CC(C)(C)OC(=O)N(CCCCCCCCCCCCN(CCCNC(=O)Cc1ccccc1O)C(=O)OC(C)(C)C)CCCNC(=O)Cc1ccccc1O", "selectivity ratio": 59}

====

Each entry below carries its reported selectivity ratio.
Assay: Selectivity index, ratio of IC50 for rat L6 cells to IC50 for erythrocytic stage of chloroquine and pyrimethamine-resistant Plasmodium falciparum K1
Format: toxicity, cell-based
Conditions: read-out: Ratio IC50
Quantity measured: selectivity ratio

{"Chemical string": "CC(C)(C)OC(=O)N(CCCCCCCCCCCCN(CCCNC(=O)Cc1ccccc1)C(=O)OC(C)(C)C)CCCNC(=O)Cc1ccccc1", "Recorded measurement": 32}
{"Chemical string": "COc1ccc(OC)c(CC(=O)NCCCN(CCCCCCCCN(CCCNC(=O)Cc2cc(OC)ccc2OC)C(=O)OC(C)(C)C)C(=O)OC(C)(C)C)c1", "Recorded measurement": 40}
{"Chemical string": "O=C(Cc1ccccc1O)NCCCNCCCCCCCCCCCCNCCCNC(=O)Cc1ccccc1O", "Recorded measurement": 4880}
